# Test system: HOP-62 NSCLC
# Method Summary: NCI-60 one-dose screen, 48 h
# Conditions Used: 10 µM unless noted
Compounds without any hit were thinned out: in the full panel of roughly 83,000, 20% have a hit. Calls of active or inactive are those of the source. How the source made its calls: active means growth percent below 10; inactive means the rest.
Would you mind answering with one of these outcomes? yes (1) (active), no (0) (inactive)

Example entries begin here.
> print(dat)
                                   compound    group
1  COc1ccc(-c2cc(-c3ccc(Cl)cc3)c(C#N)c(=O)n2Cc2ccc(C(=O)Nc3ccccc3N)cc2)cc1   no (0)
2   CC(=O)c1c(C)nc2ccccc2c1/C=C/c1ccc(F)cc1   no (0)
3  COC(=O)/C=C1/SC(=Nc2ccc(C(F)(F)F)cc2)N(CCc2c[nH]c3ccc(O)cc23)C1=O  yes (1)
4  COc1cc(C2c3cc(OC(C)=O)c(OC)cc3CC3C(=O)OCC32)ccc1OC(C)=O (stereo not drawn)   no (0)
5  O=C(CSc1nc2sc3c(c2c(=O)n1-c1ccccc1)CCCCC3)N/N=C/c1cccc([N+](=O)[O-])c1   no (0)

Task item: Which result was noted for this compound in the test: NC(Cc1ccc(O)c([N+](=O)[O-])c1)C(=O)O (stereo not drawn)
Reply: no (0)

Task item: Which result was noted for this compound in the test: O=C(/C=C/c1cccc(Cl)c1)c1cccc(OCCCOc2cccc(C(=O)/C=C/c3cccc(Cl)c3)c2)c1
Reply: no (0)

Task item: Which result was noted for this compound in the test: COc1ccc(NC2=C(I)C(=O)c3ncccc3C2=O)cc1
Reply: yes (1)
